Catalogue of IC50 readings, one per entry.
# Test system: N-Luc (Namalwa cells stably transfected with the Luciferase gene)
# test: In vitro cytotoxicity assay (WST-8 cell viability, 5 days)
# Format: cell-based
# condition-parameters: Homo sapiens, read-out: In vitro cytotoxicity (IC50) N-Luc, non-conjugated compounds, Table 7B
Value expressed in pM; do not type the unit.

What value of IC50 has been recorded for this entry: `CC[C@@]1(O)C(=O)OCc2c1cc1n(c2=O)Cc2c-1nc1cc(F)c(C)cc1c2CNC(=O)CO`
900

What does the data say about its IC50? Entry: `CC[C@@]1(O)C(=O)OCc2c1cc1n(c2=O)Cc2c-1nc1cc(F)c(C)cc1c2CCCCO`
200

Fill in the blank: the reported IC50 of `CC[C@@]1(O)C(=O)OCc2c1cc1n(c2=O)Cc2c-1nc1cc(F)c(C)cc1c2CSCCSC` is ____.
200

Suppose we examine the compound `CC[C@@]1(O)C(=O)OCc2c1cc1n(c2=O)Cc2c-1nc1cc(F)c(C)cc1c2CSCCO` ; what IC50 value has been reported?
200
